This section presents binders with their documented koff values.
MEASUREMENT TARGET: T1, Recombinant mouse sclerostin (mouse, UniProt Q99P68 24-211)
T1 construct: Whole entry as named; also called mouse-SOST
T1 sequence: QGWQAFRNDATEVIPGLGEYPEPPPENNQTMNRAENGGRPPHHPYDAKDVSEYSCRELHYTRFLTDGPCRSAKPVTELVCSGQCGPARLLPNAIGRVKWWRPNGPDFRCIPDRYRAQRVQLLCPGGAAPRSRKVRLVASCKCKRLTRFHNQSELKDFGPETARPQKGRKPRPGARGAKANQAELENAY
EXPERIMENT SUMMARY: SPR (Biacore T200), 37 C, dissociation at pH 5.8 of complex formed at pH 7.4
MEASUREMENT LABEL: koff (s⁻¹)

[
  {
    "BINDER": "mabA_pH1 (antibody, V domains shown) VH: EVQLVQSGAEVKKPGASVKVSCKASGYTFTDYNMHWVRQAPGQGLEWMGEINPNSGHAGYNQKFKGRVTMTTDTSTSTAYMELRSLRSDDTAVYYCARLHYDDIYDDWYFDVWGQGTTVTVSS VL: DIQMTQSPSSLSASVGDRVTITCRASHDISNYLNWYQQKPGKAPKLLIYYTSRLLSGVPSRFSGSGSGTDFTLTISSLQPEDFATYYCQQGDTLPYTFGGGTKVEIK",
    "VALUE REPORTED": 0.0107
  },
  {
    "BINDER": "mabA_NpH1 (antibody, V domains shown) VH: EVQLVQSGAEVKKPGASVKVSCKASGYTFTDYNMHWVRQAPGQGLEWMGEINPNSGGAGYNQKFKGRVTMTTDTSTSTAYMELRSLRSDDTAVYYCARLGYDDIYDDWYFHVWGQGTTVTVSS VL: DIQMTQSPSSLSASVGDRVTITCRASQDISNYLNWYQQKPGKAPKLLIYHTSRLLSGVPSRFSGSGSGTDFTLTISSLQPEDFATYYCQQGDTLPYTFGGGTKVEIK",
    "VALUE REPORTED": 0.00191
  },
  {
    "BINDER": "mabA_pH2 (antibody, V domains shown) VH: EVQLVQSGAEVKKPGASVKVSCKASGYTFTDYNMHWVRQAPGQGLEWMGEINPNSGHAGYNQKFKGRVTMTTDTSTSTAYMELRSLRSDDTAVYYCARLHYDHIYDDWYFDVWGQGTTVTVSS VL: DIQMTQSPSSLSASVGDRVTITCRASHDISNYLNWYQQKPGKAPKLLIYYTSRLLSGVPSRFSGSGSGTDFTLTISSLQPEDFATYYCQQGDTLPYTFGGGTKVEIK",
    "VALUE REPORTED": 0.00805
  }
]
